assay: Biodistribution of Ln-DOTATATE and Ln-DOTA-LM3 (multiplexed ICP-MS); settings: female, CD1 nude, mouse, liver, intravenous, 0.5 nmol, Tissue uptake: Liver, 24 h p.i., AR42J tumor-bearing mice
Where a SMILES comes first, the peptide text is derived from it. Bridges are numbered along the chain shown (N, C = ends). [ ]: non-standard residue; d: D form. The star is where a group is joined. DOTA = O=C(O)CN1CCN(CC(=O)O)CCN(CC(=O)*)CCN(CC(=O)O)CC1; dPhe(4-NHCONH2) = NC(=O)Nc1ccc(C[C@@H](N)C(=O)O)cc1; Phe(4-Cl) = N[C@@H](Cc1ccc(Cl)cc1)C(=O)O
reportedMetric: tissue uptake at 24 h

Item under review: C[C@@H](O)[C@@H]1NC(=O)[C@H](CCCCN)NC(=O)[C@@H](Cc2ccc(NC(N)=O)cc2)NC(=O)[C@H](Cc2ccc(O)cc2)NC(=O)[C@H](NC(=O)[C@H](Cc2ccc(Cl)cc2)NC(=O)CN2CCN(CC(=O)O)CCN(CC(=O)O)CCN(CC(=O)O)CC2)CSSC[C@@H](C(=O)N[C@H](Cc2ccc(O)cc2)C(N)=O)NC1=O [[^175Lu]Lu-DOTA-LM3] ({DOTA}-[Phe(4-Cl)][dC]Y[dPhe(4-NHCONH2)]KTC[dY]-NH2; disulfide 2-7 (inferred); C-terminus assumed) . Reported tissue uptake at 24 h? < 0.5 %ID/g

---

system: non-tumor-bearing immunocompetent FVB mice; experiment: Biodistribution of lanthanide chloride salts LnCl3 (multiplexed ICP-MS); assay type: in vivo; settings: 96 h p.i., non-tumor-bearing mice
reportedMetric: Tissue uptake: Liver
State the value with its unit after it.

- compound: "[Cl-].[Cl-].[Cl-].[Eu+3] [[^153Eu]EuCl3]"
  reading: "23 ± 1 % ID/g"
- compound: "[Cl][Tb]([Cl])[Cl] [[^159Tb]TbCl3]"
  reading: "11 ± 1 % ID/g"
- compound: "[Cl][Lu]([Cl])[Cl] [[^175Lu]LuCl3]"
  reading: "4.8 ± 0.9 % ID/g"

Continue with the next compound.
Item under review: [Cl][Gd]([Cl])[Cl] [[^157Gd]GdCl3] . Reported Tissue uptake: Liver? 18 ± 1 % ID/g

---

Each record here notes measured Tissue uptake: Pancreas.
system: non-tumor-bearing immunocompetent FVB mice; assay: Biodistribution of lanthanide chloride salts LnCl3 (multiplexed ICP-MS); type: in vivo; settings: 24 h p.i., non-tumor-bearing mice

Some entries whose results are on file:
- compound: "[Cl-].[Cl-].[Cl-].[Eu+3] [[^153Eu]EuCl3]"
  reading: "<0.5 % ID/g"
- compound: "[Cl][Lu]([Cl])[Cl] [[^175Lu]LuCl3]"
  reading: "<0.5 % ID/g"
- compound: "[Cl][Gd]([Cl])[Cl] [[^157Gd]GdCl3]"
  reading: "0.61 ± 0.11 % ID/g"

Continue with the next compound.
Query Tissue uptake: Pancreas on non-tumor-bearing immunocompetent FVB mice for [Cl][Tb]([Cl])[Cl] [[^159Tb]TbCl3] <0.5 % ID/g

---

Each record here notes measured Tissue uptake: Stomach.
system: non-tumor-bearing immunocompetent FVB mice; assay: Biodistribution of lanthanide chloride salts LnCl3 (multiplexed ICP-MS); type: in vivo; details: 1 h p.i., non-tumor-bearing mice
Quick reminder: number only, in % ID/g, skip the unit.

Some entries whose results are on file:
- compound: "[Cl][Tb]([Cl])[Cl] [[^159Tb]TbCl3]"
  reportedMetric: "Tissue uptake: Stomach"
  readingUnit: "% ID/g"
  reading: 6.0
- compound: "[Cl-].[Cl-].[Cl-].[Eu+3] [[^153Eu]EuCl3]"
  reportedMetric: "Tissue uptake: Stomach"
  readingUnit: "% ID/g"
  reading: 6.0
- compound: "[Cl][Lu]([Cl])[Cl] [[^175Lu]LuCl3]"
  reportedMetric: "Tissue uptake: Stomach"
  readingUnit: "% ID/g"
  reading: 5.8

Continue with the next compound.
Item under review: [Cl][Gd]([Cl])[Cl] [[^157Gd]GdCl3] . Reported Tissue uptake: Stomach? 6.2

---

tested on: non-tumor-bearing immunocompetent FVB mice; assay: Biodistribution of lanthanide chloride salts LnCl3 (multiplexed ICP-MS); type: in vivo; details: 1 h p.i., non-tumor-bearing mice
Each record here notes measured Tissue uptake: Brain.

Some entries whose results are on file:
- molecule: "[Cl-].[Cl-].[Cl-].[Eu+3] [[^153Eu]EuCl3]"
  testedSystem: "non-tumor-bearing immunocompetent FVB mice"
  reading: "1.2 ± 0.9 % ID/g"
- molecule: "[Cl][Gd]([Cl])[Cl] [[^157Gd]GdCl3]"
  testedSystem: "non-tumor-bearing immunocompetent FVB mice"
  reading: "1.0 ± 0.6 % ID/g"
- molecule: "[Cl][Tb]([Cl])[Cl] [[^159Tb]TbCl3]"
  testedSystem: "non-tumor-bearing immunocompetent FVB mice"
  reading: "1.1 ± 0.8 % ID/g"

Continue with the next molecule.
Item under review: [Cl][Lu]([Cl])[Cl] [[^175Lu]LuCl3] . Reported Tissue uptake: Brain? <0.5 % ID/g

---

Each record here notes measured Tissue uptake: Stomach.
system: non-tumor-bearing immunocompetent FVB mice; test: Biodistribution of lanthanide chloride salts LnCl3 (multiplexed ICP-MS); assay type: in vivo; conditions: 96 h p.i., non-tumor-bearing mice
Quick reminder: number only, in % ID/g, skip the unit.

Some entries whose results are on file:
- compound: "[Cl-].[Cl-].[Cl-].[Eu+3] [[^153Eu]EuCl3]"
  reading: 2.3
- compound: "[Cl][Lu]([Cl])[Cl] [[^175Lu]LuCl3]"
  reading: 2.5
- compound: "[Cl][Gd]([Cl])[Cl] [[^157Gd]GdCl3]"
  reading: 3.1

Continue with the next compound.
Item under review: [Cl][Tb]([Cl])[Cl] [[^159Tb]TbCl3] . Reported Tissue uptake: Stomach? 2.2

---

system: non-tumor-bearing immunocompetent FVB mice; experiment: Biodistribution of lanthanide chloride salts LnCl3 (multiplexed ICP-MS); format: in vivo; details: 1 h p.i., non-tumor-bearing mice
Each record here notes measured Tissue uptake: Heart.
State the value with its unit after it.

Some entries whose results are on file:
- molecule: "[Cl-].[Cl-].[Cl-].[Eu+3] [[^153Eu]EuCl3]"
  reportedMetric: "Tissue uptake: Heart"
  reading: "5.3 ± 2.1 % ID/g"
- molecule: "[Cl][Gd]([Cl])[Cl] [[^157Gd]GdCl3]"
  reportedMetric: "Tissue uptake: Heart"
  reading: "5.0 ± 1.7 % ID/g"
- molecule: "[Cl][Lu]([Cl])[Cl] [[^175Lu]LuCl3]"
  reportedMetric: "Tissue uptake: Heart"
  reading: "3.6 ± 1.5 % ID/g"

Item under review: [Cl][Tb]([Cl])[Cl] [[^159Tb]TbCl3] . Reported Tissue uptake: Heart? 4.8 ± 2.2 % ID/g

---

test: Biodistribution of Ln-DOTATATE and Ln-DOTA-LM3 (multiplexed ICP-MS); settings: female, CD1 nude, mouse, pancreas, intravenous, 0.5 nmol, Tissue uptake: Pancreas, 24 h p.i., AR42J tumor-bearing mice
Where a SMILES comes first, the peptide text is derived from it. Bridges are numbered along the chain shown (N, C = ends). [ ]: non-standard residue; d: D form. The star is where a group is joined. DOTA = O=C(O)CN1CCN(CC(=O)O)CCN(CC(=O)*)CCN(CC(=O)O)CC1; dPhe(4-NHCONH2) = NC(=O)Nc1ccc(C[C@@H](N)C(=O)O)cc1; Phe(4-Cl) = N[C@@H](Cc1ccc(Cl)cc1)C(=O)O
reportedMetric: tissue uptake at 24 h (%ID/g)
Quick reminder: number only, in %ID/g, skip the unit.

Item under review: C[C@@H](O)[C@@H]1NC(=O)[C@H](CCCCN)NC(=O)[C@@H](Cc2ccc(NC(N)=O)cc2)NC(=O)[C@H](Cc2ccc(O)cc2)NC(=O)[C@H](NC(=O)[C@H](Cc2ccc(Cl)cc2)NC(=O)CN2CCN(CC(=O)O)CCN(CC(=O)O)CCN(CC(=O)O)CC2)CSSC[C@@H](C(=O)N[C@H](Cc2ccc(O)cc2)C(N)=O)NC1=O [[^175Lu]Lu-DOTA-LM3] ({DOTA}-[Phe(4-Cl)][dC]Y[dPhe(4-NHCONH2)]KTC[dY]-NH2; disulfide 2-7 (inferred); C-terminus assumed) . Reported tissue uptake at 24 h? 0.51

---

test: Biodistribution of Ln-DOTATATE and Ln-DOTA-LM3 (multiplexed ICP-MS); settings: female, CD1 nude, mouse, kidneys, intravenous, 0.5 nmol, Tissue uptake: Kidneys, 1 h p.i., AR42J tumor-bearing mice
Where a SMILES comes first, the peptide text is derived from it. Bridges are numbered along the chain shown (N, C = ends). [ ]: non-standard residue; d: D form. The star is where a group is joined. DOTA = O=C(O)CN1CCN(CC(=O)O)CCN(CC(=O)*)CCN(CC(=O)O)CC1; dPhe(4-NHCONH2) = NC(=O)Nc1ccc(C[C@@H](N)C(=O)O)cc1; Phe(4-Cl) = N[C@@H](Cc1ccc(Cl)cc1)C(=O)O
reportedMetric: tissue uptake at 1 h (%ID/g)
Quick reminder: number only, in %ID/g, skip the unit.

Item under review: C[C@@H](O)[C@@H]1NC(=O)[C@H](CCCCN)NC(=O)[C@@H](Cc2ccc(NC(N)=O)cc2)NC(=O)[C@H](Cc2ccc(O)cc2)NC(=O)[C@H](NC(=O)[C@H](Cc2ccc(Cl)cc2)NC(=O)CN2CCN(CC(=O)O)CCN(CC(=O)O)CCN(CC(=O)O)CC2)CSSC[C@@H](C(=O)N[C@H](Cc2ccc(O)cc2)C(N)=O)NC1=O [[^175Lu]Lu-DOTA-LM3] ({DOTA}-[Phe(4-Cl)][dC]Y[dPhe(4-NHCONH2)]KTC[dY]-NH2; disulfide 2-7 (inferred); C-terminus assumed) . Reported tissue uptake at 1 h? 11

Hello, the source for this data is paper PMC11839852, in case you need it.
